- Assay Target: T1, human ROR1 (full-length, on the cell surface) (human, UniProt Q01973 30-937)
- T1 construct: whole, on cells; the tumour cell lines carry their own ROR1; also called Ba/F3-ROR1 cells; Jeko-1
- T1 sequence (Q01973 30-937): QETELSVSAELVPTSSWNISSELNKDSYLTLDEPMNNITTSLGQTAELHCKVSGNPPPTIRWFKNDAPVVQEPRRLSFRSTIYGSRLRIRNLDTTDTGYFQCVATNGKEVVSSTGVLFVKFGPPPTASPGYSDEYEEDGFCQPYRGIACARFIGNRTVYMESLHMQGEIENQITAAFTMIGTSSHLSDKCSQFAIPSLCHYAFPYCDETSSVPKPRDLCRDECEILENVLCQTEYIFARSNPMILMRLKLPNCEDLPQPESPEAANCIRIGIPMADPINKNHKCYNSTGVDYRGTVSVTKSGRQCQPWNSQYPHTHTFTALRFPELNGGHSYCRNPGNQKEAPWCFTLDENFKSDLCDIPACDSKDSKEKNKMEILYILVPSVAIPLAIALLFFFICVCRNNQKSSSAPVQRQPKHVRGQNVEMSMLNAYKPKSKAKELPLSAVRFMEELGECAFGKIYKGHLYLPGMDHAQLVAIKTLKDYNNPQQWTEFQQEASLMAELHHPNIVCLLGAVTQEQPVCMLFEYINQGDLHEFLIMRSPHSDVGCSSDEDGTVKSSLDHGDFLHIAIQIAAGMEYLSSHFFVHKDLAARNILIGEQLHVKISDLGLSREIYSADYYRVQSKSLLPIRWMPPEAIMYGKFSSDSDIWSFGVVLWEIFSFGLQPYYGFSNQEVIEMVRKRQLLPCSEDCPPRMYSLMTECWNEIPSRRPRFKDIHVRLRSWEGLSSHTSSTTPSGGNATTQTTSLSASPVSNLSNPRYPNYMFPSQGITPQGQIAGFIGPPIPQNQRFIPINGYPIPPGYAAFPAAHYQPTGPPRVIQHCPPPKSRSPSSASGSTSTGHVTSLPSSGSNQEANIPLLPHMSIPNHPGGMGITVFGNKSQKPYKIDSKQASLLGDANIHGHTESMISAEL
- Experimental Details: flow cytometry, HT-29 cells
pEC50: −log10 of the molar value.
# pEC50 annotations

Binder: 19F6-Hu35V10 (antibody, human IgG1, kappa, V domains shown, humanized, human IgG1 / kappa) VH: QVQLQESGPGLVKPSQTLSLTCTVSGYSITSDYAWNWIRQFPGKGLEWIGYISYSGSIRYNPSLKSRVTISRDTSKNQFSLKLSSVTAADTAVYYCARGEITYYFDYWGQGTLVTVSS VL: ETTLTQSPAFMSATPGDKVTISCKASTDIDSDMNWYQQKPGKPPKLIISEGNTLRPGIPPRFSSSGYGTDFTFTIRKIESEDAADYYCLQSNDLPLTFGQGTKLEIKR
pEC50: 9.77

Binder: 3D8-Hu47 (antibody, human IgG1, kappa, V domains shown, humanized, human IgG1 / kappa) VH: EVQLVESGGGLVQPGGSLRLSCAASGFTFSSYAMSWVRQAPGKGLEWVSSINSGGSTYYPDSVKGRFTISRDNSKNTLYLQMNSLRAEDTAVYYCARVNYYGYGDYAMDYWGQGTLVTVSS VL: DIQMTQSPSSLSASVGDRVTITCQASQDISNYLSWFQQKPGKSPKTLIYRANRLVTGVPSRFSGSGSGTDYTFTISSLQPEDIATYYCLQYDEFPYTFGGGTKLEIKR
pEC50: 9.54

Binder: 38F8-Hu24 (antibody, human IgG1, kappa, V domains shown, humanized, human IgG1 / kappa) VH: EVQLVESGGGLVQPGGSLRLSCAASGFTFSNYAMSWVRQAPGKGLEWVASISSGGPTYYPDSVKGRFTVSRDNSKNTLYLQMNSLRAEDTAVYYCARGYRYDVNWYFDVWGAGTMVTVSS VL: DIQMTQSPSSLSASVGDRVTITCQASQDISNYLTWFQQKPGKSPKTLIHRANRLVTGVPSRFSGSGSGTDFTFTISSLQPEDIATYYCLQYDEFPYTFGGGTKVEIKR
pEC50: 9.62

Binder: 38F8-Hu34 (antibody, human IgG1, kappa, V domains shown, humanized, human IgG1 / kappa) VH: QVQLVESGGGLVKPGGSLRLSCAASGFTFSNYAMSWVRQAPGKGLEWVASISSGGPTYYADSVKGRFTISRDNAKNSLYLQMNSLRAEDTAVYYCARGYRYDVNWYFDVWGAGTMVTVSS VL: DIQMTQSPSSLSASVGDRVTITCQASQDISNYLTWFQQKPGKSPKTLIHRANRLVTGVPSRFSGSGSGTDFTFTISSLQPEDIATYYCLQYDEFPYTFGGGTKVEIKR
pEC50: 9.54

Binder: 19F6-Hu35V1 (antibody, human IgG1, kappa, V domains shown, humanized, human IgG1 / kappa) VH: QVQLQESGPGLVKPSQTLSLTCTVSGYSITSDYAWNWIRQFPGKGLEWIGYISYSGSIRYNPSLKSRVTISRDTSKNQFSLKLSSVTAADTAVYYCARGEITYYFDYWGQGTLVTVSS VL: ETTLTQSPAFMSATPGDKVTISCKASTSIDDDMNWYQQKPGEPPKLIISEGNTLRPGIPPRFSSSGYGTDFTFTINKIKSEDAATYYCLQSNDLPLTFGQGTKLEIKR
pEC50: 9.82

Binder: 19F6-Hu35V8 (antibody, human IgG1, kappa, V domains shown, humanized, human IgG1 / kappa) VH: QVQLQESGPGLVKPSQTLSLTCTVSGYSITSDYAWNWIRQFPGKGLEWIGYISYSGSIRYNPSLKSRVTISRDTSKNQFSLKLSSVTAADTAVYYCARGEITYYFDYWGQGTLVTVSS VL: ETTLTQSPAFMSATPGDKVTISCKASTDIDNDMNWYQQKPGKPPKLIISEGNTLRPGIPPRFSSSGYGTDFTFTINNIQSEDAATYYCLQSNDLPLTFGQGTKLEIKR
pEC50: 9.92

Binder: 3D8-Hu57 (antibody, human IgG1, kappa, V domains shown, humanized, human IgG1 / kappa) VH: EVQLVESGGGLVQPGGSLRLSCAASGFTFSSYAMSWVRQAPGKGLEWVSSINSGGSTYYPDSVKGRFTISRENAKNSLYLQMNSLRAGDTAVYYCARVNYYGYGDYAMDYWGQGTLVTVSS VL: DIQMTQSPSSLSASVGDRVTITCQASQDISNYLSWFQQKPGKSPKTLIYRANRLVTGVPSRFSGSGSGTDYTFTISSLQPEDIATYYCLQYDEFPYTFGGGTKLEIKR
pEC50: 9.55

Binder: 19F6-Hu12 (antibody, human IgG1, kappa, V domains shown, humanized, human IgG1 / kappa) VH: QVQLQESGPGLVKPSETLSLTCTVTGYSITSDYAWNWIRQPPGKGLEWMGYISYSGSIRYKPSLKDRITISRDTSKNQFSLKLSSVTAADTAVYYCARGEITYYFDYWGQGTLVTVSS VL: DIQMTQSPSSLSASVGDRVTITCITTTDIDDDMNWYQQKPGKAPKLLISEGNTLQSGVPSRFSGSGYGTDFTLTISSLQPEDFATYYCLQSNDLPLTFGQGTKLEIKR
pEC50: 9.96

Binder: 38F8-Hu16 (antibody, human IgG1, kappa, V domains shown, humanized, human IgG1 / kappa) VH: EVQLVESGGGLVQPGGSLRLSCTASGFTFSNYAMSWVRQAPGKGLEWVASISSGGPTYYADSVKGRFTVSRDNSRNTLYLQMNSLRAEDTAVYYCARGYRYDVNWYFDVWGRGTLVTVSS VL: DIQMTQSPSSLSASVGDRVTITCQASQDINSYLTWFQQKPGKSPKTLIHRANRLVTGVPSRFSGSGSGTDFTFTISSLQPEDIATYYCLQYDEFPYTFGGGTKVEIKR
pEC50: 9.51

Binder: 19F6-Hu31 (antibody, human IgG1, kappa, V domains shown, humanized, human IgG1 / kappa) VH: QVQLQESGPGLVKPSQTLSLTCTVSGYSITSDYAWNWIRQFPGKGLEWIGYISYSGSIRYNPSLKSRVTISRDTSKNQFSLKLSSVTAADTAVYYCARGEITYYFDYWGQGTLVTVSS VL: DIQMTQSPSSLSASVGDRVTITCITTTDIDDDMNWYQQKPGKAPKLLISEGNTLRPGVPSRFSGSGYGTDFTLTISSLQPEDFATYYCLQSNDLPLTFGQGTKLEIKR
pEC50: 10.00
